Test system: PC-3
Test: Cytotoxicity against human PC3 cells assessed as growth inhibition after 48 hrs by SRB assay
Assay type: functional, cell-based
Details: PC-3, 48 h
IC50 overview
Please reply with the bare figure in µM and do not write the unit itself.

# get_value(readout='IC50', item= COc1cc2c(cc1CC=C(C)C)/C(=N/O)C[C@@H](c1ccc(O)cc1)O2 )
31.6

Consider the additional compound presented here.
# get_value(readout='IC50', item= COc1ccc([C@@H]2C/C(=N/OCc3cn(-c4ccc(C(N)=O)cc4)nn3)c3cc(CC=C(C)C)c(OC)cc3O2)cc1 )
16.1

###

pIC50 overview
Tested on: HCT-116
Experiment: Cytotoxicity against human HCT116 cells assessed as growth inhibition after 48 hrs by SRB assay
Type: functional, cell-based
Details: HCT-116, 48 h
Answer as the number alone; pIC50 is minus log10 of concentration in mol/L.

Please review the entries below; each comes with its answer.
So what pIC50 did COc1cc2c(cc1CCC(C)C)C(=O)C[C@@H](c1ccc(O)cc1)O2 get with HCT-116?
4.46

So what pIC50 did COc1cc2c(cc1CC=C(C)C)/C(=N/NC(N)=O)C[C@@H](c1ccc(O)cc1)O2 get with HCT-116?
4.61

So what pIC50 did COc1cc2c(cc1CC=C(C)C)/C(=N/O)C[C@@H](c1ccc(O)cc1)O2 get with HCT-116?
4.53

So what pIC50 did COc1ccc([C@@H]2C/C(=N/OCc3cn(-c4ccc(C(N)=O)cc4)nn3)c3cc(CC=C(C)C)c(OC)cc3O2)cc1 get with HCT-116?
5.15

So what pIC50 did COc1cc2c(cc1CC1OC1(C)C)C(=O)C[C@@H](c1ccc(O)cc1)O2 (stereo partly specified) get with HCT-116?
4.54

Consider the additional compound presented here.
So what pIC50 did COc1ccc([C@@H]2C/C(=N/OCc3cn(-c4ccccc4CO)nn3)c3cc(CC=C(C)C)c(OC)cc3O2)cc1 get with HCT-116?
4.52

###

Test system: PC-3
Test: Cytotoxicity against human PC3 cells assessed as growth inhibition after 48 hrs by SRB assay
Assay type: functional, cell-based
Settings: PC-3, 48 h
observation_type: pIC50
Answer as the number alone; pIC50 is minus log10 of concentration in mol/L.

Please review the entries below; each comes with its answer.
So what pIC50 did COc1cc2c(cc1CC=C(C)C)/C(=N/NC(N)=O)C[C@@H](c1ccc(O)cc1)O2 get with PC-3?
4.56

So what pIC50 did COc1ccc([C@@H]2C/C(=N/OCc3cn(-c4ccccc4CO)nn3)c3cc(CC=C(C)C)c(OC)cc3O2)cc1 get with PC-3?
4.58

So what pIC50 did COc1cc2c(cc1CC1OC1(C)C)C(=O)C[C@@H](c1ccc(O)cc1)O2 (some centres undefined) get with PC-3?
4.56

Further cases:
So what pIC50 did COc1cc2c(cc1CCC(C)C)C(=O)C[C@@H](c1ccc(O)cc1)O2 get with PC-3?
4.44

Cited source: ChEMBL document CHEMBL4145481
